assayTarget: CFIm25;CFIm68 RRM (human;human, UniProt O43809;Q16630 1-227;13-235, |)
Sequence (O43809 whole entry, chain 1 of 2): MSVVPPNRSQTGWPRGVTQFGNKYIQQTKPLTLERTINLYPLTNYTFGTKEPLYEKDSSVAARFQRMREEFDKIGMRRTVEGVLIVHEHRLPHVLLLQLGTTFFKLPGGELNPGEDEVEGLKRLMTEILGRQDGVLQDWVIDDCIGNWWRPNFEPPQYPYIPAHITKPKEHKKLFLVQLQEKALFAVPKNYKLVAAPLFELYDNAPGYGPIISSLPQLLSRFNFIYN
Sequence (Q16630 13-235, chain 2 of 2): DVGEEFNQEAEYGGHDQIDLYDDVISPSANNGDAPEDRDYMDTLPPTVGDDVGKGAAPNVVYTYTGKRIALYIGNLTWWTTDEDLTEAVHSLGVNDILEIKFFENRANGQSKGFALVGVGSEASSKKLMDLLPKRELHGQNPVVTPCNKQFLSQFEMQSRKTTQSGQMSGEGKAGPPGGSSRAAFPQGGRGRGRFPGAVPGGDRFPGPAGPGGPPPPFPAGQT
experimentDescription: EMSA
readoutLabel: pKd
Numbers only, as −log10 of the molar value.

Can you share its pKd? I mean this binder: GGGUGUAAAACAGAUGAUGUAU (ssRNA) [PAPOLA upstream element as printed]
6.65
